- assayedSystem: UniProt P21554
- assaySummary: Displacement of [3H]CP55940 from human recombinant CB1 receptor expressed in HEK293 cells after 90 mins

- compound: "CCCCCCCCCCCCC/C=C/CCC(=O)N(C)[C@H](CO)COC [SERINOLAMIDE A]"
  Ki: "1300 nM"
- compound: "CCCCC/C=C\\C/C=C\\C/C=C\\C/C=C\\CCCC(=O)N[C@@H](CO)C(=O)O"
  Ki: "> 10000 nM"

* * *

- assayedSystem: Cannabinoid receptor 1 (Homo sapiens)
- Sequence (P21554 whole entry): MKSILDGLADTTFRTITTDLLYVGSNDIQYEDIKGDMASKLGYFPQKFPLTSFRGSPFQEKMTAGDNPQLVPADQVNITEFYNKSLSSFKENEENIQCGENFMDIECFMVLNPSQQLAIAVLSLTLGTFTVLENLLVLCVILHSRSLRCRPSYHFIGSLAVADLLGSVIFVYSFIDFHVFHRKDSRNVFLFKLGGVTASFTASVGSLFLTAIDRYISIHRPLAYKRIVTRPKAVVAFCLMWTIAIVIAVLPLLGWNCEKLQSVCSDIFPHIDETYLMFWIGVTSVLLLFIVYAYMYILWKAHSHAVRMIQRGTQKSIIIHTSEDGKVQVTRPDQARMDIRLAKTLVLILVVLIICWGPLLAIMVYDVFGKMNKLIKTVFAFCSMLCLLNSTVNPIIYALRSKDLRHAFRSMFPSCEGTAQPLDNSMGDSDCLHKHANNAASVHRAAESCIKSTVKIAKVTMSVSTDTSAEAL
- assaySummary: Displacement of [3H]CP55940 from human recombinant CB1 receptor expressed in HEK293 cells after 90 mins
Overview of reported IC50 across a group of molecules:
measureName: IC50 (µM)

- molecule: "C=C(CCCCCCCCCCCCC)CCCC(=O)O/C=C\\COC(C)=O"
  measureName: "IC50"
  limitQualifier: ">"
  measurement: 10
- molecule: "CCCCCCCCCCCCC/C=C/CCC(=O)N(C)[C@H](CO)COC [SERINOLAMIDE A]"
  measureName: "IC50"
  limitQualifier: "="
  measurement: 2.3
